Data credit: ChEMBL document CHEMBL2218924

SYSTEM UNDER TEST: Ribosomal protein S6 kinase alpha-4 (Homo sapiens)
MEASUREMENT CONTEXT: at 1 µM
RESULT TYPE: residual activity (%)
The figure you give is taken to be in %; do not add the unit.

1) O=[N+]([O-])/C=C/c1ccc2c(c1)OCO2 : 90
2) N/C(=N\[N+](=O)[O-])N/N=C\c1ccc(-c2cccc([N+](=O)[O-])c2)o1 : 97

Let's switch to this compound now.
Problem: Please give the measured residual activity for this compound: O=C1Nc2ccc3ncsc3c2/C1=C/c1c[nH]cn1
Result: 20

---

SYSTEM UNDER TEST: SRSF protein kinase 2 (Homo sapiens) (UniProt P78362)
Sequence (P78362 whole entry, looked up): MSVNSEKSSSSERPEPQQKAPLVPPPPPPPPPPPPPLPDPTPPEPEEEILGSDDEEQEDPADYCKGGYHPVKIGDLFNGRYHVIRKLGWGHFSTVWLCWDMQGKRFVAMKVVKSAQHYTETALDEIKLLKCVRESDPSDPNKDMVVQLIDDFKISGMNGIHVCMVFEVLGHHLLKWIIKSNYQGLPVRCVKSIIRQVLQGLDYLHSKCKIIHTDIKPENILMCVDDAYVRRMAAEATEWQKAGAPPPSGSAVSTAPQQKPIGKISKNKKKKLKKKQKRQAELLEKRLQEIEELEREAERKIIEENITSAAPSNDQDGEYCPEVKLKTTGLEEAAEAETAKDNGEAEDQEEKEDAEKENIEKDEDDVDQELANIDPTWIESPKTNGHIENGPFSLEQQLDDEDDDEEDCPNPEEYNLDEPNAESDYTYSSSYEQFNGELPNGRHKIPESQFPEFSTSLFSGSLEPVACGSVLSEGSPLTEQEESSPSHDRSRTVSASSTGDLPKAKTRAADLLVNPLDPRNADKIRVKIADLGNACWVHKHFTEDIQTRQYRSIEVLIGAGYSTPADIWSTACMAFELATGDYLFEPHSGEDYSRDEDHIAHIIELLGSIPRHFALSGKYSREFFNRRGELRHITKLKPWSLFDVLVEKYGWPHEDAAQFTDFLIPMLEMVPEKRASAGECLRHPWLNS
MEASUREMENT CONTEXT: at 10 µM
I would appreciate it if you labelled entries T when residual activity is 80% or higher, otherwise F.

Example results:
1) CC(C)[C@H](CO)Nc1nc(Nc2cccc(Cl)c2)c2ncn(C(C)C)c2n1 : F
2) CCc1nc(-c2ccc(OC)cc2)[nH]c1-c1ccncc1 : F

# input for lookup
Problem: Determine whether this molecule has residual activity no lower than 80%: O=C1c2ccccc2-c2nc3nnnn3nc21
Result: T
